Overview of reported EC50 across a group of compounds:
Target: F508delCFTR (Homo sapiens, UniProt P13569, DEL508-508)
Construct: expressed in transfected cells; host or cells: CFBE41o- human lung-derived epithelial cells (CFBE4lo-F508delCFTR-HRP), doxycycline-inducible
Sequence (P13569 with tags, fused parts or gaps DEL508-508): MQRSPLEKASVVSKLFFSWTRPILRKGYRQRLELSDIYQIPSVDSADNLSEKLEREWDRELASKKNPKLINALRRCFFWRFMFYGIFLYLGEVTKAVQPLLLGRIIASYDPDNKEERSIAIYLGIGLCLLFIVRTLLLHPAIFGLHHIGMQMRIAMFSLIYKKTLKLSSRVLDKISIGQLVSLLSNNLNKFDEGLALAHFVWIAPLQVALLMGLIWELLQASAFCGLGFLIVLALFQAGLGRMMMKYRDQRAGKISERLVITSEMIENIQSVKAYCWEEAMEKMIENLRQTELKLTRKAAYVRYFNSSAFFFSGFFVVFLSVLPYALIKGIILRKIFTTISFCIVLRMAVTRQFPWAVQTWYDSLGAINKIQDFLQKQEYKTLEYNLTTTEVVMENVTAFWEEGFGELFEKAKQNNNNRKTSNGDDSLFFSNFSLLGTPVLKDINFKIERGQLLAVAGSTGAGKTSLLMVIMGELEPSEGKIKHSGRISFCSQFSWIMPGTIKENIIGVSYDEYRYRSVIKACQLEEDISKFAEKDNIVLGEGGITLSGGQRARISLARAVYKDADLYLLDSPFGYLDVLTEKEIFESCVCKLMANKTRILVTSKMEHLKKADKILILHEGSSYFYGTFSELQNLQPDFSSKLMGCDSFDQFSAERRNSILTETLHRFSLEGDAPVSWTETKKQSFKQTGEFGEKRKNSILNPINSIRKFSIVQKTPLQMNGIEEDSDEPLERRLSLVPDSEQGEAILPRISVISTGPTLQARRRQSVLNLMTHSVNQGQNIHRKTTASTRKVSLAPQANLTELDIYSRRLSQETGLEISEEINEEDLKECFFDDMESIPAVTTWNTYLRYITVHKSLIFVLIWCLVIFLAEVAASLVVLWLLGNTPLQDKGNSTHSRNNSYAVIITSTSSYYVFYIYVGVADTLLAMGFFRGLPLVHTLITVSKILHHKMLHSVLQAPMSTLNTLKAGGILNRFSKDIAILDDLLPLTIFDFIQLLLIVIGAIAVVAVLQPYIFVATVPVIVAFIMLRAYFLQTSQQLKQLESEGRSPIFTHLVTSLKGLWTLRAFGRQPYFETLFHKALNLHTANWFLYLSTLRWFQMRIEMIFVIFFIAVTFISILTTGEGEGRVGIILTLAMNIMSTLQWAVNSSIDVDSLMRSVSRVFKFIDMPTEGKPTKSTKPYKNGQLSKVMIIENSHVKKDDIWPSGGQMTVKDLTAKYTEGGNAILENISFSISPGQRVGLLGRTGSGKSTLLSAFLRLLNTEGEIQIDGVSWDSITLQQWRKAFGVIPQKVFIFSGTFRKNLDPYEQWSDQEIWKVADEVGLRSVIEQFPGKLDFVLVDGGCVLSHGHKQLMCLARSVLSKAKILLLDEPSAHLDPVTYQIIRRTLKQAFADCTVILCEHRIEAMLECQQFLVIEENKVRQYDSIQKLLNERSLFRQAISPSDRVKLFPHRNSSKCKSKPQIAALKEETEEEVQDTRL
Assay: Cell Surface Expression-Horse Radish Peroxidase (CSE-HRP) Assay
Type: cell-based
Conditions: test compound without co-corrector; read-out: EC50 (without co-corrector)
Method: Cell Surface Expression-Horse Radish Peroxidase (CSE-HRP) Assay The development was achieved by expressing the F508delCFTR mutation along with a horseradish peroxidase (HRP) in the fourth exofacial loop, and then measuring the HRP activity using luminescence readout from these cells, CFBE4lo-F508delCFTR-HRP, that were incubated overnight with the test corrector compounds, either without or with the co-corrector. […] The raw counts from the experiment were analyzed using Accelrys® Assay Explorer v3.3. […]

Recorded EC50, per entry:
# COMPOUND, TESTED SYSTEM, ENDPOINT RESULT
data = [
    ("COc1ccc(C(C)(C)C)cc1CN[C@H]1[C@H](C(C)(C)C)[C@@H](C(=O)O)N(C(=O)C(OC)C2CC2)[C@H]1c1ccccc1 (single isomer, unassigned) [Example I-95]", "F508delCFTR (Homo sapiens, UniProt P13569, DEL508-508)", "1 to 10 µM"),
    ("COCC1(c2ccc(OC)c(CN[C@H]3[C@H](C(C)(C)C)[C@@H](C(=O)O)N(C(=O)C4CCCCC4)[C@H]3c3ccccc3)c2)CC1 [II-420]", "F508delCFTR (Homo sapiens, UniProt P13569, DEL508-508)", "1 to 10 µM"),
]

Challenge: EC50 for COc1cccc([C@@H]2[C@H](Nc3cc(C(F)(F)F)cc(C)n3)[C@@H](C(C)(C)C)[C@H](C(=O)O)N2C(=O)C2CCCCO2)n1 (mixture of isomers) [III-63] ?
Response given: > 10 µM
